target: T-cell surface glycoprotein CD4 (Homo sapiens); assay: Binding affinity to CD4 by SPR assay
experimental.readout: Kd
# number then unit; no other words

Exam item: Give me measured Kd, please, for this substance: H-NMWQKVGTPL-OH
Marked response: 6 mM

====

assay: Half life by pronase digestion assay; assay type: ADME; details: pronase (protease digestion)
experimental.readout: half-life
# number then unit; no other words

Exam item: Give me measured half-life, please, for this substance: H-NMWQKVGTPL-OH
Marked response: 6 min

====

assay: Half life by pronase digestion assay; type: ADME; settings: pronase (protease digestion)
Numbered stars: 1 amine (or outer) side, 2 acyl side, 3 side chain; on linkers, the order of the positions; unused ones are H or OH. Square brackets hold non-standard residues; d marks the D form. Peptide text beside a SMILES is read from it. * marks the point of attachment. Acetyl(2-naphthyloxy) = O=C(COc1ccc2ccccc2c1)*; X1 = O=C(OC[C@@H]1CCCN1[*:1])[*:2]; NHcHex = C1CCC(N*)CC1
experimental.readout: half-life (min)
Reply numerically in min, unit not repeated.

Exam item: Give me measured half-life, please, for this molecule: CC(C)[C@H](NC(=O)[C@H](CCCCN)NC(=O)COc1ccc2ccccc2c1)C(=O)NCC(=O)N[C@H](C(=O)N1CCC[C@H]1COC(=O)NC1CCCCC1)[C@@H](C)O ({Acetyl(2-naphthyloxy)}-KVGT[X1]-NHcHex)
Marked response: 27.3

Others:
Exam item: Give me measured half-life, please, for this molecule: CCOC(=O)CNC(=O)OC[C@@H]1CCCN1C(=O)[C@@H](NC(=O)CNC(=O)[C@@H](NC(=O)[C@H](CCCCN)NC(=O)COc1ccc2ccccc2c1)C(C)C)[C@@H](C)O ({Acetyl(2-naphthyloxy)}-KVGT[X1]G-OEt)
Marked response: 23

====

molecular target: T-cell surface glycoprotein CD4 (Homo sapiens)
Numbered stars: 1 amine (or outer) side, 2 acyl side, 3 side chain; on linkers, the order of the positions; unused ones are H or OH. Square brackets hold non-standard residues; d marks the D form. Peptide text beside a SMILES is read from it. * marks the point of attachment. Acetyl(2-naphthyloxy) = O=C(COc1ccc2ccccc2c1)*; Alaninol(O-CO) = C[C@@H](COC(=O)[*:2])N[*:1]; NH(1-Adamantyl) = C1C2CC3CC1CC(N*)(C2)C3; X1 = O=C(OC[C@@H]1CCCN1[*:1])[*:2]; X3 = O=C(COc1cccc2cccnc12)*; NHcPent = C1CCC(N*)C1; NHtBu = CC(C)(C)N*
experimental.readout: Kd (µM)
Reply numerically in µM, unit not repeated.

Previously resolved entries follow.
Exam item: Answer with Kd of CC(C)[C@H](NC(=O)[C@H](CCCCN)NC(=O)COc1cccc2cccnc12)C(=O)NCC(=O)N[C@H](C(=O)N1CCC[C@H]1COC(=O)NC(C)(C)C)[C@@H](C)O (X3-KVGT[X1]-NHtBu) measured for T-cell surface glycoprotein CD4 (Homo sapiens).
Marked response: 26

Exam item: Answer with Kd of CC(C)[C@H](NC(=O)[C@H](CCCCN)NC(=O)COc1ccc2ccccc2c1)C(=O)NCC(=O)N[C@H](C(=O)N[C@@H](C)COC(=O)NC1CCCC1)[C@@H](C)O ({Acetyl(2-naphthyloxy)}-KVGT[Alaninol(O-CO)]-NHcPent) measured for T-cell surface glycoprotein CD4 (Homo sapiens).
Marked response: 62

Exam item: Answer with Kd of CC(C)[C@H](NC(=O)[C@H](CCCCN)NC(=O)COc1cccc2cccnc12)C(=O)NCC(=O)N[C@H](C(=O)N[C@@H](C)COC(=O)NC(C)(C)C)[C@@H](C)O (X3-KVGT[Alaninol(O-CO)]-NHtBu) measured for T-cell surface glycoprotein CD4 (Homo sapiens).
Marked response: 13

Please turn your attention to the following entry.
Exam item: Answer with Kd of CC(C)[C@H](NC(=O)[C@H](CCCCN)NC(=O)COc1ccc2ccccc2c1)C(=O)NCC(=O)N[C@H](C(=O)N[C@@H](C)COC(=O)NC12CC3CC(CC(C3)C1)C2)[C@@H](C)O ({Acetyl(2-naphthyloxy)}-KVGT[Alaninol(O-CO)]-{NH(1-Adamantyl)}) measured for T-cell surface glycoprotein CD4 (Homo sapiens).
Marked response: 80

Where do these numbers come from? They come from ChEMBL document CHEMBL1146220.
